Would you mind telling me the reported soluble fraction (log2) of each entry?
assay: soluble fraction after stress (log2 fold change); higher = more stays soluble; pooled small domains, quantitative proteomics; settings: stress: pH 4

                                   sequence  result
0  HMAENTKKWDETGRRYRSYIKLEKRLSENTVESYMRDYMQFAHFILRQWDVAPHKVEPQMVERYMAWLYER  -0.806
1  HMRPEVTEHLKTADAILHGGDINRQSIVDELRQYAPLYIVRGNNDKDWAEAIPHDLTVTLGGVTFFMVHNR   -0.42
2  HMGGRTITVGISENMTVKDIAQMLEEKGLIEDARLFVVQELLSAYHKEIKPGIYDLSTDMTAAQMLEIMS   -1.32

Record soluble fraction (log2) for all entries; do not skip any.
1. HMLSKEFRFFTYLLESYAQHKNTTAGAVLKTLDEKGLTDFVYKMYDLYHVEAIENAYMDLDSLIATGKPA
2. HMGATFITSSKDNAINIRQAAGTDSKVIETIKNGHILESSEKSGEWYKVTYYDSDIKKTFTGYIHNSQLK
3. HMGIAERKEKQKLEIRNAILEASRKLIVEEGFEKVTMRKIADLIEYSPTTVYLYFKDKNEILFHLHQ

1. -0.989
2. -0.162
3. -0.798

Record soluble fraction (log2) for all entries; do not skip any.
1. HMVREVSYDQFLHFVEAKQVGMVYQDGESLMFTLKEDVEKEWGVTAYKTGLWPDANLTDRLLDAGVVFS
2. HMDKRYYYRILGLVGEPTRDQIEAAYETRIAKLRSSDYGDDPLYARRKISEVTMAYKVLTGS

-1.65
0.139
